Data origin, for the record: patent US10413505B1

Assay notes: Example 1 single-dose plasma pharmacokinetics after intranasal administration
Type: in vivo, human
Test conditions: female, human, plasma, inhaled or intranasal, 160 mg, Female healthy subjects; single intranasal 160 mg cocaine HCl; plasma; read-out: AUClast (Median)

Molecule | AUC(0-t) (ng·h/mL)
COC(=O)[C@H]1[C@@H](OC(=O)c2ccccc2)C[C@@H]2CC[C@H]1N2C [Cocaine, cocaine, reference compound] | 32.4

----------
Assay notes: Example 2 plasma pharmacokinetics, normal renal function vs severe renal impairment
Test conditions: both, human, plasma, inhaled or intranasal, 160 mg, Cmax (Mean), severe renal impairment; single intranasal 160 mg cocaine HCl
Result type: Cmax (ng/mL)

Molecule | Meas value
COC(=O)[C@H]1[C@@H](OC(=O)c2ccccc2)C[C@@H]2CC[C@H]1N2C [Cocaine, cocaine, reference compound] | 57.8
